pIC50: −log10 of the molar value.
// cross-study collection: pIC50 for human ACC2 (Homo sapiens (Human), UniProt O00763)
QUANTITY: pIC50

[a] CCOc1cnc(N2CCC(Oc3ccc([C@H](C)NC(C)=O)cc3)C2)c(F)c1 (some centres unmarked)
[b] CC(=O)NC(C)c1ccc(CN2CCc3cc(OCC4CCC4)ccc3C2)cc1 (centres unmarked)
[c] Cc1nocc1C(=O)N[C@@H](C)c1ccc(CN2CCc3cc(OCC4CC4(F)F)ccc3C2)cc1 (some centres unmarked)
query: hey, can you rank those molecules up there by pIC50? biggest number first please // format: requested-order list of labels
result: c, b, a
(c: 7.48, b: 7.17, a: 6.25)

[P] CCCNc1nccc(N2CC[C@@H](Oc3ccc(C(C)C(=O)NC(C)CO)cc3)C2)c1F (some centres unmarked)
[Q] CCCOc1ccc(N2CCC(Oc3ccc([C@H](C)NC(C)=O)cc3)C2)c(C)n1 (some centres unmarked)
query: Select one: P or Q . Criterion: greater recorded pIC50. Your choice should be expressed through its label.
result: Q

[1] COc1ccc(-c2cnc(C#Cc3ccc(CC(C)NC(C)=O)cc3)cn2)cc1 (centres unmarked)
[2] CCNC(=O)C(C)c1ccc(C#Cc2cnc(NC3CCC3)nc2)cc1 (centres unmarked)
[3] CC(C)COc1ccc2c(c1)CCN(Cc1ccc([C@H](C)NC(=O)C3CC3)cc1)C2
[4] CCOc1ccc(N2CCC(c3ccc(C(C)C(=O)NC4CC4)cc3)CC2)c(F)c1 (centres unmarked)
[5] C[C@H](NC(=O)C1CC1)c1ccc(C#Cc2cnc(Oc3ccccc3)nc2)cc1
query: Descending sort on pIC50 required. // format: requested-order list of labels
result: 3, 4, 2, 1, 5
(3: 7.24, 4: 6.85, 2: 6.16, 1: 5.96, 5: 5.41)

[a] CC(C)NC(=O)C(C)c1ccc(O[C@@H]2CCN(c3nc(N(C)C)ncc3F)C2)cc1 (some centres unmarked)
[b] CC(=O)NC(C)Cc1ccc(C#Cc2ccc(OCCn3ccnc3)cc2)cc1 (centres unmarked)
[c] CC(=O)N[C@@H](C)c1ccc(O[C@@H]2CCN(c3ccnc(NCC4(O)CCC4)c3F)C2)cc1
query: Descending sort on pIC50 required. // format: requested-order list of labels
result: c, b, a
(c: 7.28, b: 6.28, a: 6.03)
